Molecular target: T1, NHERF3_4, Q5T2W1
T1 sequence (Q5T2W1 373-468, limits assumed, looked up): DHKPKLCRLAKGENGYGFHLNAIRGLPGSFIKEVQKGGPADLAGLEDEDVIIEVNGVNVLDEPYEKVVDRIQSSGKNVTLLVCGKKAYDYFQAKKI
Experiment: holdup assay
Set-up: key: below the threshold = too weak to quantify, mostly under pKd 3.1 to 4
Settings: plain residues with an end cap or a label only (N-terminal biotin on a linker: ado-ado)
If the reported pKd equals or exceeds 4, assign satisfied. If not, assign not satisfied.

*Q* Reported pKd at or above 4? RDYTQSSSSL [GRM5, P41594]
*A* not satisfied

*Q* State whether the measured pKd reaches 4, counting equality as reaching it, for QLKSGRDSTV [TMEM178A, Q8NBL3]
*A* not satisfied

*Q* Can NNMAFETTHF [SLC5A12, Q1EHB4] be said to have pKd at or above 4?
*A* satisfied

*Q* Confirm if pKd reported for the binder EAVTVESTSL [SLC22A11, Q9NSA0] is 4 or above.
*A* satisfied

*Q* Given VYEVPVETKF [SLC26A3, P40879] , state whether its pKd is at least 4.
*A* satisfied

*Q* In plain terms: is recorded pKd at least 4 for LLQEEWETVM [PTH1R, Q03431] ?
*A* satisfied

*Q* # bool: pKd of GSQSQVETEA [FKBP4, Q02790] >= 4
*A* not satisfied
